target: Q172A-SrtA mutant (Staphylococcus aureus, UniProt Q2FV99, Q172A); construct: 6xHis; assay: Fluorescence quenching assay, Q172A-SrtA
PROPERTY_MEASURED: Kd

Record O=C1c2c(O)cc(O)cc2OC(c2ccc(O)c(O)c2)C1O (stereo not shown) [Tax, taxifolin] . Reported Kd: 26 µM

* * *

target: S. aureus SrtA (Staphylococcus aureus, UniProt Q2FV99)
PROPERTY_MEASURED: IC50 (µM)
Response body: numeric value in µM, unit text excluded.

Record O=C1c2c(O)cc(O)cc2OC(c2ccc(O)c(O)c2)C1O (stereo not shown) . Reported IC50: 24.5

* * *

target: D170A-SrtA mutant (Staphylococcus aureus, UniProt Q2FV99, D170A); construct: 6xHis; test: Fluorescence quenching assay, D170A-SrtA
PROPERTY_MEASURED: Kd (µM)
Response body: numeric value in µM, unit text excluded.

Record O=C1c2c(O)cc(O)cc2OC(c2ccc(O)c(O)c2)C1O (stereo not shown) . Reported Kd: 37.2

* * *

target: SrtA (Staphylococcus aureus, UniProt Q2FV99); construct: 6xHis; made in house; host or cells: E. coli BL21 (DE3), plasmid pET28a-SrtA; test: Localized surface plasmon resonance (LSPR); format: binding
PROPERTY_MEASURED: pKd
Kindly note that pKd refers to -log10 of the concentration in mol/L and answer with the value alone.

Record O=C1c2c(O)cc(O)cc2OC(c2ccc(O)c(O)c2)C1O (stereo not shown) [Tax, taxifolin] . Reported pKd: 3.78

* * *

biological target: WT-SrtA (Staphylococcus aureus)
PROPERTY_MEASURED: Kd (µM)
Response body: numeric value in µM, unit text excluded.

Record O=C1c2c(O)cc(O)cc2OC(c2ccc(O)c(O)c2)C1O (stereo not shown) . Reported Kd: 15.6
